# MEASURED_ON: T1, Bzz1-2, P38822
# T1 sequence (P38822 568-633, looked up): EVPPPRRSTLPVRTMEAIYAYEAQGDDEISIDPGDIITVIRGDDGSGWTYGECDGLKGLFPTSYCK
# ASSAY_PROCEDURE: SPOT array
# MEASUREMENT_SETUP: median of control spots 4538
ENDPOINT_NAME: SPOT intensity

[[record]]
binder = "IRMPSNPALPKKLLN"
readout_value = 2

[[record]]
binder = "NRARYLPQNPDIIAG"
readout_value = 0

[[record]]
binder = "TIRRRAPLSLLESHT"
readout_value = 8

[[record]]
binder = "KDKKTKPTPPPKPSH"
readout_value = 1

